OBSERVATION TYPE: melting point

                                    compound            val
 0  Cc1ccc(S(=O)(=O)NCc2cn(C[C@H](O)[C@H]3OC(=O)C(O)=C3O)nn2)cc1 [Compound 4r]  125 to 127 °C
 1  O=C1O[C@H]([C@@H](O)Cn2cc(CCO)nn2)C(O)=C1O [Compound 4q]  184 to 186 °C
 2  O=C1O/C(=C\Cn2cc(-c3ccc(Br)cc3)nn2)C(O)=C1O [Compound 7e]  219 to 222 °C
 3  O=C1O[C@H]([C@@H](O)Cn2cc(-c3ccc(Br)cc3)nn2)C(O)=C1O [Compound 4e]  159 to 160 °C
 4  O=C1O[C@H]([C@@H](O)Cn2cc(CSC(=S)N3CCNCC3)nn2)C(O)=C1O [Compound 4v]       ≥ 250 °C
 5  O=C1O/C(=C\Cn2cc(C3CC3)nn2)C(O)=C1O [Compound 7l]  176 to 178 °C
 6  CCCCCCCCCCc1cn(C/C=C2\OC(=O)C(O)=C2O)nn1 [Compound 7n]  169 to 171 °C
 7  O=C1O/C(=C\Cn2cc(CCCCl)nn2)C(O)=C1O [Compound 7p]  160 to 162 °C
 8  Cc1ccc(-c2cn(C/C=C3\OC(=O)C(O)=C3O)nn2)cc1 [Compound 7f]  188 to 192 °C
 9  CCCCCc1ccc(-c2cn(C[C@H](O)[C@H]3OC(=O)C(O)=C3O)nn2)cc1 [Compound 4k]  237 to 239 °C
10  CCCCc1cn(C[C@H](O)[C@H]2OC(=O)C(O)=C2O)nn1 [Compound 4m]    98 to 99 °C
11  CCCCCCCCCCc1cn(C[C@H](O)[C@H]2OC(=O)C(O)=C2O)nn1 [Compound 4n]  140 to 142 °C
12  Cc1ccc(-c2cn(C[C@H](O)[C@H]3OC(=O)C(O)=C3O)nn2)cc1 [Compound 4f]  152 to 154 °C
13  O=C1O[C@H]([C@@H](O)Cn2cc(CCCCl)nn2)C(O)=C1O [Compound 4p]    86 to 88 °C
14  O=C1O[C@H]([C@@H](O)Cn2cc(C3CC3)nn2)C(O)=C1O [Compound 4l]  119 to 121 °C
15  O=C1O[C@H]([C@@H](O)Cn2ccnn2)C(O)=C1O [Compound 4b]  219 to 221 °C
16  O=C1O[C@H]([C@@H](O)Cn2cc(-c3cc(C(F)(F)F)cc(C(F)(F)F)c3)nn2)C(O)=C1O [Compound 4c]       ≥ 250 °C
17  O=C1O/C(=C\Cn2cc(CCO)nn2)C(O)=C1O [Compound 7q]  172 to 173 °C
